For each entry below, report its IC50 value.
- target or test system: PI5P4Kγ+ (Homo sapiens, UniProt Q8TBX8, D138G/D197E/E133P/E135D/E153T/E196G/G139A/N195G/S132L/S134N)
- Sequence (Q8TBX8 with tags, fused parts or gaps with the stated changes): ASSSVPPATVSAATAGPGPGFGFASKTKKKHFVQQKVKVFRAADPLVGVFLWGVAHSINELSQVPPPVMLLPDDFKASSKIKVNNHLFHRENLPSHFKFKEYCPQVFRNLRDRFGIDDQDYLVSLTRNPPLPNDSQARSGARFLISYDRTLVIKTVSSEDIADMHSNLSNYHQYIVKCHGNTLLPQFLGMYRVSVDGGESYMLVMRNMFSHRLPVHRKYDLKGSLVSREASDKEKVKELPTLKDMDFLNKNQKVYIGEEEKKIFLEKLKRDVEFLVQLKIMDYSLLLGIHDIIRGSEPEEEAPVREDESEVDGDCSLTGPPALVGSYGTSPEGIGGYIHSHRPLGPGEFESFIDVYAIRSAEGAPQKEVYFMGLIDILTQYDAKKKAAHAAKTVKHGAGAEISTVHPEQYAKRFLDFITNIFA
- method description: biochemical
- condition summary: ADP-Glo pIC50 PI5P4Kγ+, Table S1, two decimals; asterisk not explained
Answers are plain numbers, in nM.

>>> observed("COc1cnccc1-c1cc2c(Nc3ccc(C4CC4)cc3)ncnc2s1")
63.1
>>> observed("COc1cnccc1-c1cc2c(Nc3ccc(SC)cc3)ncnc2s1 [COc1cnccc1-c1cc2c(ncnc2s1)Nc1ccc(cc1)SC]")
15.1
>>> observed("Cc1cc2c(Nc3ccc(N4CCCC4=O)c(C)c3)ncnc2s1 [Cc1cc2c(ncnc2s1)Nc1ccc(c(c1)C)N1CCCC1=O]")
200

Please find the next molecule below.
Consider the molecule Cc1ccc(Nc2ncnc3sc(-c4cccnc4C)cc23)cc1 [Compound 22] . State its measured IC50.
1550
